The reported numbers originate from patent US11965039B2.

Recorded inhibition of hemolysis IC50 values for a group of binders are listed next.
# study_target: Human C3 (Complement tech cat #A113c) (human, UniProt P01024 23-1663)
# Sequence (P01024 23-1663 limits assumed): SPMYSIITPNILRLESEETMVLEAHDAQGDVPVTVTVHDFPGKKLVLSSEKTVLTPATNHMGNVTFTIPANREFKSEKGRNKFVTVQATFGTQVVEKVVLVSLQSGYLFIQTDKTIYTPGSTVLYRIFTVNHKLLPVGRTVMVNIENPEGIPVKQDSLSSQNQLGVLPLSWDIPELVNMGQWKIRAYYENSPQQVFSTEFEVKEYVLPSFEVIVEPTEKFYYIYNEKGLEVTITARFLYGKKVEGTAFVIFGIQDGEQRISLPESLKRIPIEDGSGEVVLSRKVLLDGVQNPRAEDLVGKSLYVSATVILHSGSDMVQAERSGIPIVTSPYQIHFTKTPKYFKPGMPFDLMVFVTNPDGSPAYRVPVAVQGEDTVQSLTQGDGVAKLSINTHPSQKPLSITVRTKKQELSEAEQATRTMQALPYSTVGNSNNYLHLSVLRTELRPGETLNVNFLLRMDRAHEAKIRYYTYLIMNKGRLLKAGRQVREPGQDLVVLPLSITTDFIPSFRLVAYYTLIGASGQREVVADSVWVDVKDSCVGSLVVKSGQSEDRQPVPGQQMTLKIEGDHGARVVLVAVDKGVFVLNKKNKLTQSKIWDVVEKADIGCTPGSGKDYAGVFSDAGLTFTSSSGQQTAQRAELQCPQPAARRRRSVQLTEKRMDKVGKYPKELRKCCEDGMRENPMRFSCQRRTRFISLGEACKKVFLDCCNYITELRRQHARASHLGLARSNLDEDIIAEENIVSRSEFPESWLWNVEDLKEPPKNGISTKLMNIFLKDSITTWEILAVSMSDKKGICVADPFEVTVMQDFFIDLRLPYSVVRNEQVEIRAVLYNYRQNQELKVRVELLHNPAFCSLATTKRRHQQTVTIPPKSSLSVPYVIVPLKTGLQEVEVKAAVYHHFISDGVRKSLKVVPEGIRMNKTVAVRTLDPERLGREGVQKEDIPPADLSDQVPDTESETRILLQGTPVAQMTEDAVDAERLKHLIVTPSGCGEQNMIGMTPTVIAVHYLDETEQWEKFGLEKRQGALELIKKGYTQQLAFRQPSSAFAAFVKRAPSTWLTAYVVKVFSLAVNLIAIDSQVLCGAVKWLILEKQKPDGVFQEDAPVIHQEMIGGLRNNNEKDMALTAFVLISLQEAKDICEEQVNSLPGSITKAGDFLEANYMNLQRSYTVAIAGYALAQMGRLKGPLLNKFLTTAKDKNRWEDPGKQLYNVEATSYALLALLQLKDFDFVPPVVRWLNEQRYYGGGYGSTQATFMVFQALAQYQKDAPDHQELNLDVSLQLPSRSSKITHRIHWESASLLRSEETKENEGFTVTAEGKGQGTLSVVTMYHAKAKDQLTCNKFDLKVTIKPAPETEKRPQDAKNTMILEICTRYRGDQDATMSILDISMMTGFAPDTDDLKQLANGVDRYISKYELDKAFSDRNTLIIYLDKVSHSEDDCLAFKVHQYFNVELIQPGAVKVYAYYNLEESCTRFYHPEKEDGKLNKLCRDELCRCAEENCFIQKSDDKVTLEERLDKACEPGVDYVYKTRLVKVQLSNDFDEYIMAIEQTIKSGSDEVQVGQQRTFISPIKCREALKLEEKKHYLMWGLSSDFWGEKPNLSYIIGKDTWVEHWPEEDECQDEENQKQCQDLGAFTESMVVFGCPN
# assay_explanation: cell-based or functional assay
Positions of bridges follow the written chain, without caps; N, C: chain ends.
property: inhibition of hemolysis IC50

>>> value("Ac-ESSAYCIWQDWGEHRCT-NH2 (disulfide 6-16; SMILES CC[C@H](C)[C@@H]1NC(=O)[C@@H](NC(=O)[C@H](Cc2ccc(O)cc2)NC(=O)[C@H](C)NC(=O)[C@H](CO)NC(=O)[C@H](CO)NC(=O)[C@H](CCC(=O)O)NC(C)=O)CSSC[C@@H](C(=O)N[C@H](C(N)=O)[C@@H](C)O)NC(=O)[C@H](CCCNC(=N)N)NC(=O)[C@H](Cc2c[nH]cn2)NC(=O)[C@H](CCC(=O)O)NC(=O)CNC(=O)[C@H](Cc2c[nH]c3ccccc23)NC(=O)[C@H](CC(=O)O)NC(=O)[C@H](CCC(N)=O)NC(=O)[C@H](Cc2c[nH]c3ccccc23)NC1=O) [Compound 10]")
"< 100 nM"
>>> value("Ac-ICIWQDWGEHRCTEGE-NH2 (disulfide 2-12; SMILES CC[C@H](C)[C@H](NC(C)=O)C(=O)N[C@H]1CSSC[C@@H](C(=O)N[C@H](C(=O)N[C@@H](CCC(=O)O)C(=O)NCC(=O)N[C@@H](CCC(=O)O)C(N)=O)[C@@H](C)O)NC(=O)[C@H](CCCNC(=N)N)NC(=O)[C@H](Cc2c[nH]cn2)NC(=O)[C@H](CCC(=O)O)NC(=O)CNC(=O)[C@H](Cc2c[nH]c3ccccc23)NC(=O)[C@H](CC(=O)O)NC(=O)[C@H](CCC(N)=O)NC(=O)[C@H](Cc2c[nH]c3ccccc23)NC(=O)[C@H]([C@@H](C)CC)NC1=O, also called Comp No 24) [Compound 24]")
"< 100 nM"
